Production rate of Alvocidib values, listed per item
PROCEDURE_TEXT: Evaluation of conversion rate to active form in buffer solution (Experimental Example 1)
Format: physicochemical
SETUP_CONDITIONS: pH7.4, 3 hr
ASSAY_ENDPOINT: Production rate of Alvocidib (%)

CNC(=O)Oc1cc(O)c2c(=O)cc(-c3ccccc3Cl)oc2c1[C@H]1CCN(C)C[C@H]1O [Comparative Example 2, reference compound]; 98.5
CN1CC[C@H](c2c(OC(=O)N(C)CCN)cc(O)c3c(=O)cc(-c4ccccc4Cl)oc23)[C@H](O)C1 [Comparative Example 13, reference compound]; 92.1
CN1CC[C@H](c2c(O)cc(O)c3c(=O)cc(-c4ccccc4Cl)oc23)[C@H](OC(=O)[C@@H](N)CO)C1 [Comparative Example 9, reference compound]; 53.3
CCNC(=O)O[C@@H]1CN(C)CC[C@@H]1c1c(O)cc(O)c2c(=O)cc(-c3ccccc3Cl)oc12 [Comparative Example 4, reference compound]; 1.8
CNC(=O)O[C@@H]1CN(C)CC[C@@H]1c1c(O)cc(O)c2c(=O)cc(-c3ccccc3Cl)oc12 [Comparative Example 5, reference compound]; 0.0
CNCCN(C)C(=O)Oc1cc(O)c2c(=O)cc(-c3ccccc3Cl)oc2c1[C@H]1CCN(C)C[C@H]1O [Comparative Example 14, reference compound]; 97.2
